Values from patent US20260034125A1

Target: UniProt P51684
Test: Human CCR6-Cre reporter assay
Type: cell-based
Design: The second construct contained the open reading frame of human CCR6 in the pUNO1 backbone; host or cells: 293 FT cells
Details: relative -LogIC50; transfected 293 FT cells, 6 μM Forskolin, 6 nM CCL20, luciferase readout, 5h
Method: 293 FT cells were transfected with 2 constructs using TransIT-293 (Mirus). The first construct (pGL4.29, Promega) expressed the luciferase reporter gene luc2P in response to the binding of cAMP-induced CREB to the CRE element in its promoter. The second construct contained the open reading frame of human CCR6 in the pUNO1 backbone under the control of an enhanced CMV promoter (In VivoGen). […] The relative-LogIC50 was determined with GraphPad Prism 9 using a four-parameter dose-response model.
Can you tell me pIC50 for the items I'm about to list?
Here pIC50 is given on a logarithmic scale as minus log10 of the concentration in mol/L.

Summary for this compound, CNC(=O)c1ccc(-c2ccc(S(=O)(=O)N3CCC(Nc4ccc(C5(C(F)(F)F)CC5)cc4)CC3)cc2)cc1 [Example 5] : pIC50 is 6.80

Summary for this compound, N#CC1(c2ccc(NC3CCN(S(=O)(=O)c4ccc(-c5ccc6n[nH]c(=O)n6c5)cc4)CC3)nc2)CC1 [Example 35] : pIC50 is 6.40

Summary for this compound, N#Cc1ccc(-c2ccc(S(=O)(=O)N3CCC(Nc4ccc(C5(C#N)CC5)cc4)CC3)cc2)cc1 [Example 1] : pIC50 is 6.30

Summary for this compound, N#CC1(c2ccc(NC3CCN(S(=O)(=O)c4ccc(N5CCC6(CC5)COC(=O)N6)cc4)CC3)nc2)CC1 [Example 27] : pIC50 is 5.10

Summary for this compound, N#Cc1c[nH]c2ccc(-c3ccc(S(=O)(=O)N4CCC(Nc5ccc(C6CC6)cc5)CC4)cc3)cc12 [Example 12] : pIC50 is 6.60

Summary for this compound, N=S(=O)(c1ccc(-c2ccc3nccn3c2)cc1)[C@H]1CC[C@H](Nc2ccc(C3(C(F)(F)F)CC3)cc2)CC1 (stereo partly shown) [Example 13] : pIC50 is 6.60

Summary for this compound, Cc1cc(-c2ccc(S(=O)(=O)N3CCC(Nc4ccc(C5(C(F)(F)F)CC5)cn4)CC3)cc2)cn2c(C(C)C)nnc12 [Example 46] : pIC50 is 7.20

----------
target: human CCR6 (Homo sapiens, UniProt P51684); assay: CHO-K1 CCR6 chemotaxis assay towards CCL20; assay type: cell-based; details: relative -LogIC50; CHO-K1 cells overexpressing human CCR6, 100 ng/ml CCL20, Transwell, 4 h
measurementName: pIC50
Here pIC50 is given on a logarithmic scale as minus log10 of the concentration in mol/L.

Summary for this molecule, N#Cc1c[nH]c2ccc(-c3ccc(S(=O)(=O)[C@H]4CC[C@H](Nc5ccc(C6(C(F)(F)F)CC6)cc5)CC4)cc3)cc12 : pIC50 is 8.30

Summary for this molecule, CNC(=O)c1ccc(-c2ccc(S(=O)(=O)N3CCC(Nc4ccc(C5(C(F)(F)F)CC5)cc4)CC3)cc2)cn1 : pIC50 is 6.90

Summary for this molecule, N#Cc1c[nH]c2ccc(-c3ccc(S(=O)(=O)N4CCC(Nc5ccc(C6CC6)cc5)CC4)cc3)cc12 : pIC50 is 6.60

Summary for this molecule, NC(=O)c1cc(-c2ccc(S(=O)(=O)N3CCC(Nc4ccc(C5(C(F)(F)F)CC5)cn4)CC3)cc2)ccn1 : pIC50 is 7.70

----------
Can you tell me IC50 for the items I'm about to list?
Molecular target: UniProt P51684
Sequence (P51684 1-374): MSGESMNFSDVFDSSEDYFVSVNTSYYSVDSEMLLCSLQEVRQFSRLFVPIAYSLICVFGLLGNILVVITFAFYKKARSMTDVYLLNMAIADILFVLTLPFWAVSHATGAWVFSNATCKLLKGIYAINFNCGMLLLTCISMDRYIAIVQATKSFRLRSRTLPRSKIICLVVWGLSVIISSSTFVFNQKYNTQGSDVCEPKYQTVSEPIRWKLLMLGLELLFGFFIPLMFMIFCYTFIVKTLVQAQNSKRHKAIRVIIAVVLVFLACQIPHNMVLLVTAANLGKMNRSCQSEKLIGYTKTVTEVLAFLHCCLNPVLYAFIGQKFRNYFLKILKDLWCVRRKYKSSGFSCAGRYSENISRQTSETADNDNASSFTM
Assay: Human CCR6-Cre reporter assay
Type: cell-based
Parameters: The second construct contained the open reading frame of human CCR6 in the pUNO1 backbone; host or cells: 293 FT cells
Settings: relative -LogIC50; transfected 293 FT cells, 6 μM Forskolin, 6 nM CCL20, luciferase readout, 5h
Output spec: scalar in nM, unitless text.

Summary for this compound, O=S(=O)(c1ccc(-c2ccc3nnc(C(F)F)n3c2)cc1)N1CCC(Nc2ccc(C3(C(F)(F)F)CC3)cn2)CC1 : IC50 is 50.1

Summary for this compound, CNC(=O)c1cccc(-c2ccc(S(=O)(=O)N3CCC(Nc4ccc(C5(C(F)(F)F)CC5)cc4)CC3)cc2)c1 : IC50 is 79.4

Summary for this compound, CC(C)c1nnc2ccc(-c3ccc(S(=O)(=O)[C@H]4CC[C@H](Nc5ccc(C6(C#N)CC6)cn5)CC4)cc3)cn12 : IC50 is 200

Summary for this compound, N#CC1(c2ccc(NC3CCN(S(=O)(=O)c4ccc(N5CCC(CNC(N)=O)CC5)cc4)CC3)nc2)CC1 : IC50 is 12600

Summary for this compound, CC(C)c1nnc2ccc(-c3ccc(S(=O)(=O)N4CCC(Nc5ccc(C6(C#N)CC6)cn5)CC4)cc3)cn12 : IC50 is 200

Summary for this compound, O=S(=O)(c1ccc(-c2ccc3nccn3c2)cc1)N1CCC(Nc2ccc(C3(C(F)(F)F)CC3)cc2)CC1 : IC50 is 100

Summary for this compound, N#CC1(c2ccc(NC3CCN(S(=O)(=O)c4ccc(N5CCC6(CCNC6=O)CC5)cc4)CC3)nc2)CC1 : IC50 is 39800

----------
Can you tell me pIC50 for the items I'm about to list?
target: human CCR6 (Homo sapiens, UniProt P51684); experiment: Human CCR6-Cre reporter assay; format: cell-based; set-up: The second construct contained the open reading frame of human CCR6 in the pUNO1 backbone; host or cells: 293 FT cells; details: relative -LogIC50; transfected 293 FT cells, 6 μM Forskolin, 6 nM CCL20, luciferase readout, 5h
Here pIC50 is given on a logarithmic scale as minus log10 of the concentration in mol/L.

Summary for this compound, Cc1cnc2ccc(-c3ccc(S(=O)(=O)N4CCC(Nc5ccc(C6(C(F)(F)F)CC6)cc5)CC4)cc3)cn12 : pIC50 is 7.10

Summary for this compound, CC(C)c1nnc2ccc(-c3ccc(S(=O)(=O)N4CCC(Nc5ccc(C6(C(F)(F)F)CC6)cn5)CC4)cc3)cn12 : pIC50 is 7.50

Summary for this compound, CC(C)c1nnc2cnc(-c3ccc(S(=O)(=O)N4CCC(Nc5ccc(C6(C(F)(F)F)CC6)cn5)CC4)cc3)cn12 : pIC50 is 7.20

Summary for this compound, N#CC1(c2ccc(N[C@H]3CC[C@H](S(=O)(=O)c4ccc(-c5ccc6nccn6c5)cc4)CC3)cc2)CC1 : pIC50 is 6.80

Summary for this compound, N#CC1(c2ccc(NC3CCN(S(=O)(=O)c4ccc(N5CCC6(CC5)CC(=O)NC(=O)C6)cc4)CC3)nc2)CC1 : pIC50 is 5.60

Summary for this compound, CC(C)c1cnc2ccc(-c3ccc(S(=O)(=O)N4CCC(Nc5ccc(C6(C#N)CC6)cn5)CC4)cc3)cn12 : pIC50 is 6.70

Summary for this compound, Cc1cc(-c2ccc(S(=O)(=O)N3CCC(Nc4ccc(C5(C#N)CC5)cn4)CC3)cc2)cn2c(C(C)C)nnc12 : pIC50 is 6.70

Summary for this compound, O=S(=O)(c1ccc(-c2ccc3nccn3c2)cc1)N1CCC(Nc2ccc(C3(C(F)(F)F)CC3)cn2)CC1 : pIC50 is 7.00

Summary for this compound, CC(C)c1cnc2ccc(-c3ccc(S(=O)(=O)N4CCC(Nc5ccc(C6(C(F)(F)F)CC6)cn5)CC4)cc3)cn12 : pIC50 is 7.20

Summary for this compound, Cc1n[nH]c2ncc(-c3ccc(S(=O)(=O)[C@H]4CC[C@H](Nc5ccc(C6(C(F)(F)F)CC6)cc5)CC4)cc3)cc12 : pIC50 is 7.00

Summary for this compound, Cc1n[nH]c2ccc(-c3ccc(S(=O)(=O)N4CCC(Nc5ccc(C6CC6)cc5)CC4)cc3)cc12 : pIC50 is 6.30

Summary for this compound, N#Cc1c[nH]c2ccc(-c3ccc(S(=O)(=O)[C@H]4CC[C@H](Nc5ccc(C6(C(F)(F)F)CC6)cc5)CC4)cc3)cc12 : pIC50 is 7.70

Summary for this compound, COC1CC2(CCN(c3ccc(S(=O)(=O)N4CCC(Nc5ccc(C6(C#N)CC6)cn5)CC4)cc3)CC2)C1 : pIC50 is 5.90

Summary for this compound, CC(C)c1cnc2ccc(-c3ccc(S(=O)(=O)[C@H]4CC[C@H](Nc5ccc(C6(C(F)(F)F)CC6)cc5)CC4)cc3)cn12 : pIC50 is 7.00
